assay: Brain penetration studies; details: Table 4; mice dosed s.c. at 5 mg/kg or 50 mg/kg, or i.v. at 5 mg/kg; Cmax(brain)/Cmax(plasma)
property: BPR

chem-smiles	reported-value
Nc1ccccc1NC(=O)c1ccc(C=C2CN(CC3CC3)C2)cc1	A (A is greater than 1)
Nc1ccccc1NC(=O)c1ccc(C=C2CCN(CC3CC3)CC2)cc1	A (A is greater than 1)
CC(C)(O)CN1CCC(=Cc2ccc(C(=O)Nc3ccccc3N)cc2)CC1	A (A is greater than 1)
Nc1ccccc1NC(=O)c1ccc(C=C2COC2)c(Cl)c1	A (A is greater than 1)
Nc1ccccc1NC(=O)c1ccc(C=C2CN(CC3CC3)C2)c(Cl)c1	A (A is greater than 1)

Field: next molecule
Need BPR, item `CC(C)(C)CN1CCC(=Cc2ccc(C(=O)Nc3ccccc3N)cc2)CC1`
A (A is greater than 1)

----------
experiment: Compound stability in hepatocytes; conditions: human hepatocytes, 5 μM compound

chem-smiles	% left 6h Hum
CC(C)(O)CN1CCC(=Cc2ccc(C(=O)Nc3ccccc3N)cc2)CC1	A (50%<A)
Nc1ccccc1NC(=O)c1ccc(C=C2CN(CC3CC3)C2)cc1	A (50%<A)
Nc1cc(F)ccc1NC(=O)c1ccc(C=C2CN(CC3CC3)C2)cc1	A (50%<A)
CC(C)(O)CN1CC(=Cc2ccc(C(=O)Nc3ccccc3N)cc2)C1	A (50%<A)

Data provenance is patent US10301323B2.
